target: CDK1/Cyclin B1 (Homo sapiens (Human), UniProt P06493); test: CDK1/Cyclin B1 ADP-Glo Kinase Assay; conditions: 80 uM ATP
Sequence (P06493 whole entry): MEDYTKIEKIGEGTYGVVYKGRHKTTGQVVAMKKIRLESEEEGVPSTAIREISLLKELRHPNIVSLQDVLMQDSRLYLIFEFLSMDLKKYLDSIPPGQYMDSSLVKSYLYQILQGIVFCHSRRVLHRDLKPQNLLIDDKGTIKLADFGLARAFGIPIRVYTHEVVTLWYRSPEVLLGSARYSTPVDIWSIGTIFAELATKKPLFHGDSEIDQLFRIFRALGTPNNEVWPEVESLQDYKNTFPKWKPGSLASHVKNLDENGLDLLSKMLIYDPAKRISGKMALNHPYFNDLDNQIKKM
Sequence (P14635 whole entry partner): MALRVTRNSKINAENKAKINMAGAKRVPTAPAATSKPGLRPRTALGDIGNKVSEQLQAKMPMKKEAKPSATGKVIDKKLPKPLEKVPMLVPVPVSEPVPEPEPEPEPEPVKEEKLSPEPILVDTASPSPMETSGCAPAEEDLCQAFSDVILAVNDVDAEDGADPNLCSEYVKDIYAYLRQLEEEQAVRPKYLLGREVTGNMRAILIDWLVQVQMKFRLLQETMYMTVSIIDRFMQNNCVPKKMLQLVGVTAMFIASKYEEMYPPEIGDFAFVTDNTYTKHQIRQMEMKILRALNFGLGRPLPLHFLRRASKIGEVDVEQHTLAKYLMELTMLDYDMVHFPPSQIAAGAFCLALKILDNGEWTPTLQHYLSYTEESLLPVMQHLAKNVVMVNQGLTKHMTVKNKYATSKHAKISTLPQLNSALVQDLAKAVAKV
pIC50: −log10 of the molar value.
Each entry below carries its reported pIC50.

Use these answered entries as a reference point.
chemical_string: O=S(=O)(N1CCC(Nc2ncc3cccc(N4CC5(CNCCC5(F)F)C4)c3n2)CC1)C1(C(F)F)CC1
reported_value: 6.30 to 6.70
--
chemical_string: CC(=O)N1CC2(CCN(c3cccc4cnc(NC5CCN(S(C)(=O)=O)CC5)nc34)C2)C1
reported_value: < 5.70
--
chemical_string: CS(=O)(=O)N1CCC(Nc2ncc3cccc(N4CC(F)(F)C5(CNC5)C4)c3n2)CC1
reported_value: > 6.70

pIC50 in this record for "FC(F)c1cc(N2CC3(CCNC3)C2)c2nc(Nc3ccc4c(c3)CN(C3CC3)C4)ncc2c1" : 5.70 to 6.30

pIC50 in this record for "CS(=O)(=O)N1CCC(Nc2ncc3cccc(N4CCC5(C4)CC(F)(F)C5)c3n2)CC1" : 5.70 to 6.30

pIC50 in this record for "CS(=O)(=O)N1CCC(Nc2ncc3cc(C(F)F)cc(N4CC5(CNCC5(F)F)C4)c3n2)CC1" : > 6.70

pIC50 in this record for "CS(=O)(=O)N1CCC(Nc2ncc3cccc(N4CCOC5(CC5)C4)c3n2)CC1" : < 5.70

pIC50 in this record for "O=S(=O)(CC1CCC1)N1CCC(Nc2ncc3cc(C(F)F)cc(N4CC5(CCNC5)C4)c3n2)CC1" : > 6.70

###

target: CDK1/Cyclin B1 (Homo sapiens (Human), UniProt P06493); assay: CDK1/Cyclin B1 ADP-Glo Kinase Assay; details: 80 uM ATP
Each entry below carries its reported IC50.

compound: CCN1CC2(C1)CN(c1ccc(Nc3ncc4cccc(N5CC6(C5)CC(F)(F)C6)c4n3)nc1)C2
IC50: > 2000 nM
--
compound: CCN1CC2(C1)CN(c1ccc(Nc3ncc4cccc(N5CC6(CC(O)C6)C5)c4n3)nc1)C2
IC50: > 2000 nM
--
compound: CN1CC2(CCN(c3cc(C(F)F)cc4cnc(Nc5ccc6c(c5)CN(S(C)(=O)=O)C6)nc34)C2)C1
IC50: < 200 nM
--
compound: CN1Cc2cc(F)c(Nc3ncc4cc(C(F)F)cc(N5CC6(CNC6)C5)c4n3)cc2C1
IC50: 500 to 2000 nM

IC50 in this record for CS(=O)(=O)N1CCC(Nc2ncc3cccc(N4CCC4CO)c3n2)CC1 (stereo not drawn) : 200 to 500 nM

IC50 in this record for CS(=O)(=O)N1CCC(Nc2ncc3cc(C(F)(F)F)cc(C4CC(O)(C5CC5)C4)c3n2)CC1 (stereo not drawn) : < 200 nM

IC50 in this record for CS(=O)(=O)N1CCC(Nc2ncc3cc(C(F)F)cc(C4CC5(CCN(CCC(F)(F)F)C5)C4)c3n2)CC1 (stereo not drawn) : < 200 nM

IC50 in this record for CS(=O)(=O)N1CCC(Nc2ncc3cc(C(F)F)cc(C4CC5(CCN(CC(F)(F)CO)C5)C4)c3n2)CC1 (stereo not drawn) : < 200 nM

IC50 in this record for "COCCN1CC2(CC(c3cc(C(F)F)cc4cnc(NC5CCN(S(C)(=O)=O)CC5)nc34)C2)C1" : < 200 nM

###

system: MCF-7 cells; test: Cell Growth Inhibition, MCF-7 (CellTiterGlo, 6 days); format: cell-based; conditions: MCF-7, 6-day treatment, CellTiterGlo 2.0
assay_readout: IC50

compound: CN1CC2(CCN(c3cc(C(F)F)cc4cnc(Nc5ccc6c(c5)CN(S(C)(=O)=O)C6)nc34)C2)C1
IC50: 200 to 500 nM

compound: CN1C[C@@H]2C(Nc3ncc4cc(C(F)F)cc(N5CCC6(CCN(S(C)(=O)=O)C6)C5)c4n3)[C@@H]2C1 (some centres unmarked)
IC50: > 2000 nM

compound: FC(F)c1cc(N2CCC3(C2)CC3(F)F)c2nc(NC3[C@H]4CNC[C@@H]34)ncc2c1 (some centres unmarked)
IC50: 500 to 2000 nM

compound: CN1C[C@@H]2[C@H](C1)[C@H]2Nc1ncc2cc(C(F)F)cc(N3CCC4(C3)CS(=O)(=O)C4)c2n1
IC50: > 2000 nM

IC50 in this record for "CN1CC(n2cc(Nc3ncc4cc(C(F)F)cc(N5CC6(CN(C)C6)C5)c4n3)cn2)C1" : > 2000 nM

###

Each entry below carries its reported IC50.
target: CDK6/Cyclin D3 (Homo sapiens (Human), UniProt Q00534); experiment: CDK6/Cyclin D3 ADP-Glo Kinase Assay; conditions: 100 uM ATP, read-out: CDK6/ CyclinD3 IC50
Sequence (Q00534 whole entry): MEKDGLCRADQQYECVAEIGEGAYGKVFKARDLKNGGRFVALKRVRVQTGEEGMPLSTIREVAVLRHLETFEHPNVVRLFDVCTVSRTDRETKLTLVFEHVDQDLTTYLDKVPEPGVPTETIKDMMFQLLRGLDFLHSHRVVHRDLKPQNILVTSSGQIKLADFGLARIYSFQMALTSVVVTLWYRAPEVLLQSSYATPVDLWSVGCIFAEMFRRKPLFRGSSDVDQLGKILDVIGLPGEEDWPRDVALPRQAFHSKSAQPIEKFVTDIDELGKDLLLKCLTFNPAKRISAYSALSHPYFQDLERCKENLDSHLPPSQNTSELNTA
Sequence (P30281 whole entry partner): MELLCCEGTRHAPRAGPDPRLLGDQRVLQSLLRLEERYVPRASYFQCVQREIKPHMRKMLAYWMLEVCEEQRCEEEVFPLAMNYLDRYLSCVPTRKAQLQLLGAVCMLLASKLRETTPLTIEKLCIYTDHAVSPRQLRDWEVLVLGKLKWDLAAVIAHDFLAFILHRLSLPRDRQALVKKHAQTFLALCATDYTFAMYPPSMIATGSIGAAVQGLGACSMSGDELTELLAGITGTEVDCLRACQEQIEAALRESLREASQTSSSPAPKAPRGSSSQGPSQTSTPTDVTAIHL

Use these answered entries as a reference point.
compound: CN1CC2(CCN(c3cc(C(F)F)cc4cnc(NC5CCN(c6ncc7ccn(C8CC8)c7n6)CC5)nc34)C2)C1
assayed_target: CDK6/Cyclin D3 (Homo sapiens (Human), UniProt Q00534)
reported_value: 500 to 2000 nM

compound: CCN1CC2(C1)CN(c1ccc(Nc3ncc4cccc(N5CCC6(CCN(C(C)=O)C6)C5)c4n3)nc1)C2 (stereo not shown)
assayed_target: CDK6/Cyclin D3 (Homo sapiens (Human), UniProt Q00534)
reported_value: 200 to 500 nM

compound: CS(=O)(=O)N1CCC(Nc2ncc3cccc(N4CC5(CC(O)C5)C4)c3n2)CC1
assayed_target: CDK6/Cyclin D3 (Homo sapiens (Human), UniProt Q00534)
reported_value: < 200 nM

compound: O=S(=O)(C1CC1)N1CCC(Nc2ncc3cc(C(F)F)cc(N4CC5(C4)CN(C4CC4)C5)c3n2)CC1
assayed_target: CDK6/Cyclin D3 (Homo sapiens (Human), UniProt Q00534)
reported_value: < 200 nM

compound: CS(=O)(=O)N1CCC(Nc2ncc3cccc(N4CCC5(COC5)C4)c3n2)CC1
assayed_target: CDK6/Cyclin D3 (Homo sapiens (Human), UniProt Q00534)
reported_value: < 200 nM

compound: CC1(C)CC2(CN(c3cccc4cnc(NC5CCN(S(C)(=O)=O)CC5)nc34)C2)C1
assayed_target: CDK6/Cyclin D3 (Homo sapiens (Human), UniProt Q00534)
reported_value: > 2000 nM

Here is the next item to consider.
IC50 in this record for CC(C)(F)CN1CCC2(CC(c3cc(C(F)F)cc4cnc(NC5CCN(S(C)(=O)=O)CC5)nc34)C2)C1 (stereo not shown) : < 200 nM

###

Each entry below carries its reported pIC50.
test system: OVCAR-3 cells; assay: Cell Growth Inhibition, OVCAR-3 (CellTiterGlo, 6 days); assay type: cell-based; settings: Homo sapiens, 144 h; OVCAR-3, 6-day treatment, CellTiterGlo 2.0
pIC50: −log10 of the molar value.

Use these answered entries as a reference point.
compound: CS(=O)(=O)N1CCC(Nc2ncc3cc(C(F)F)cc(N4CC(F)(F)C5(CNC5)C4)c3n2)CC1 [Example 92]
pIC50: 5.70 to 6.30
--
compound: CN1Cc2ccc(Nc3ncc4cc(C(F)F)cc(N5CC6(C5)CN(C5CC5)C6)c4n3)cc2C1 [Example 65]
pIC50: 5.70 to 6.30

pIC50 in this record for CS(=O)(=O)N1CCC(Nc2ncc3cc(C(F)(F)F)cc(C4CC(O)(C5CC5)C4)c3n2)CC1 (stereo not shown) [Example 114] : < 5.70

pIC50 in this record for CS(=O)(=O)N1CCC(Nc2ncc3cccc(N4CCC5(CCC5(F)F)C4)c3n2)CC1 (stereo not shown) [Example 37] : < 5.70

###

Each entry below carries its reported IC50.
Molecular target: CDK6/Cyclin D3 (Homo sapiens (Human), UniProt Q00534)
Assay: CDK6/Cyclin D3 ADP-Glo Kinase Assay
Conditions: 100 uM ATP, read-out: CDK6/ CyclinD3 IC50
Description: CDK6/Cyclin D3 ADP-Glo Kinase Assay The purpose of the CDK6/Cyclin D3 assay is to evaluate the inhibition (% inhibition and IC50 values) in the presence of small molecule inhibitors by using a Luminescent based ADP-Glo assay. CDK6/Cyclin D3 catalyzes the production of ADP from ATP. ADP-Glo assay monitors ADP producing biochemical reactions. […] Samples were incubated for 40 minutes, after which plate well luminescence was measured on a Envision microplate reader. […]

compound: O=S(=O)(C1CC1)N1CCC(Nc2ncc3cc(C(F)F)cc(N4CC5(CCCNC5)C4)c3n2)CC1
IC50: < 200 nM
--
compound: CS(=O)(=O)N1CCC(Nc2ncc3cccc(N4CCCC5(CCOC5)C4)c3n2)CC1 (centres unmarked)
IC50: 500 to 2000 nM
--
compound: CS(=O)(=O)N1CCC(Nc2ncc3cccc(N4CCN(S(C)(=O)=O)CC4)c3n2)CC1
IC50: 500 to 2000 nM

IC50 in this record for "Cn1cc(S(=O)(=O)N2CCC(Nc3ncc4cccc(N5CC(O)(C(F)F)C5)c4n3)CC2)cn1" : < 200 nM

IC50 in this record for "CC1(S(=O)(=O)N2CCC(Nc3ncc4cc(C(F)F)cc(N5CC6(CCNC6)C5)c4n3)CC2)CC1" : < 200 nM
